assay: Inhibition of sheep tubulin polymerization; parameters: species or system Ovis aries
attribute_measured: IC50

molecule	readout_value
COc1cc([C@H]2C[C@H]2C(=O)Nc2cccnc2)cc(OC)c1OC (relative stereo)	> 100 µM
COc1cc(/C=C\C=C\c2ccccc2)cc(OC)c1OC	0.5 µM
COc1ccc(NC(=O)[C@@H]2C[C@@H]2c2cc(OC)c(OC)c(OC)c2)cc1O (relative stereo)	82 µM
COc1cc([C@H]2C[C@H]2/C=C/c2ccccc2)cc(OC)c1OC (relative stereo)	5.3 µM
COc1cc([C@H]2C[C@@H]2C(=O)Nc2cccnc2)cc(OC)c1OC (relative stereo)	> 100 µM
COc1cc([C@H]2C[C@H]2/C=C\c2ccccc2)cc(OC)c1OC (relative stereo)	38 µM
COc1cc([C@H]2C[C@H]2C(=O)Nc2cccc(O)c2)cc(OC)c1OC (relative stereo)	> 100 µM
COc1cc([C@H]2C[C@H]2C(=O)Nc2ccccc2)cc(OC)c1OC (relative stereo)	> 100 µM
COc1ccc(/C=C\c2cc(OC)c(OC)c(OC)c2)cc1O	0.79 µM

Now look at this one.
stdin: Give the reported IC50 for this molecule. COc1cc([C@H]2C[C@@H]2C(=O)Nc2ccccc2)cc(OC)c1OC (relative stereo)
stdout: 92 µM
